Parameter max response, negative = inhibition: see the listing below.
Target: Serine/threonine-protein kinase PLK1 (Homo sapiens)
Experiment: qHTS for Inhibitors of PLK1-PDB (polo-like kinase 1 - polo-box domain): Primary Screen; note: series mostly up to about 57 µM; % is set by controls: 0 for no effect and ±100 for the full control effect; nearly all actives have a fitted effect of over 65% in size
Settings: Plk1 PBD binding of FITC phosphopeptide, fluorescence polarization
Screen size: about 360,000 compounds; about 10,000 (2.8%) were called active. Not shown: some 4% with an inconclusive outcome. The list comes from a sample in which actives are over-represented; it also holds close analogues and randomly drawn compounds.

{"Compound": "CC(C)C1Cc2[nH][nH]c(=O)c2C(c2ccc(Cl)cc2)O1 (stereo unspecified)", "System Name": "Serine/threonine-protein kinase PLK1 (Homo sapiens)", "max response, negative = inhibition / %": -26.3}
{"Compound": "O=C(NCc1ccc(F)cc1F)[C@@H]1CCCN1C(=O)[C@@H]1CCCN1C(=O)c1cccc(Cl)c1", "System Name": "Serine/threonine-protein kinase PLK1 (Homo sapiens)", "max response, negative = inhibition / %": -3.81}
{"Compound": "COc1ccc(CC(=O)NCC(=O)N/N=C/c2cc(Br)ccc2OC)cc1", "System Name": "Serine/threonine-protein kinase PLK1 (Homo sapiens)", "max response, negative = inhibition / %": 0.444}
{"Compound": "Cc1csc(NC(=O)Nc2ccccc2[N+](=O)[O-])n1", "System Name": "Serine/threonine-protein kinase PLK1 (Homo sapiens)", "max response, negative = inhibition / %": 3.11}
{"Compound": "CC(C)/C=N/NC(=O)c1cc(Br)ccc1O", "System Name": "Serine/threonine-protein kinase PLK1 (Homo sapiens)", "max response, negative = inhibition / %": -13.1}
{"Compound": "CC1(Oc2cccc(F)c2)CCN(Cc2ccccc2OC(F)F)C1 (stereo unspecified)", "System Name": "Serine/threonine-protein kinase PLK1 (Homo sapiens)", "max response, negative = inhibition / %": -10.6}
{"Compound": "C[C@@H]1CN([C@@H](C)CO)C(=O)c2cc(NS(C)(=O)=O)ccc2O[C@@H](C)CCCCO[C@H]1CN(C)C(=O)Nc1ccc2c(c1)OCO2", "System Name": "Serine/threonine-protein kinase PLK1 (Homo sapiens)", "max response, negative = inhibition / %": -18.5}
{"Compound": "C[C@H]1CN([C@@H](C)CO)C(=O)c2cc(-c3ccccc3F)cnc2O[C@H]1CN(C)C(=O)C1CCOCC1", "System Name": "Serine/threonine-protein kinase PLK1 (Homo sapiens)", "max response, negative = inhibition / %": -20.8}
{"Compound": "CC(C)CCC(=O)Nc1cc(S(=O)(=O)N2CCOCC2)ccc1N1CCCC1", "System Name": "Serine/threonine-protein kinase PLK1 (Homo sapiens)", "max response, negative = inhibition / %": -0.0205}
{"Compound": "CC(=O)Nc1cccc(-c2ccnc3c2CC(C)(C(=O)NCc2ccco2)O3)c1 (stereo unspecified)", "System Name": "Serine/threonine-protein kinase PLK1 (Homo sapiens)", "max response, negative = inhibition / %": -8.18}
{"Compound": "CNc1cncc(-c2ccc(NS(C)(=O)=O)cc2)n1", "System Name": "Serine/threonine-protein kinase PLK1 (Homo sapiens)", "max response, negative = inhibition / %": 6.53}
{"Compound": "CC1(C(=O)NCc2ccc(F)c(F)c2)Cc2c(-c3ccc4c(c3)OCO4)ccnc2O1 (stereo unspecified)", "System Name": "Serine/threonine-protein kinase PLK1 (Homo sapiens)", "max response, negative = inhibition / %": 5.1}
{"Compound": "Cc1cc(NC(=O)CSC2=NS(=O)(=O)c3cc(Cl)ccc3N2)no1", "System Name": "Serine/threonine-protein kinase PLK1 (Homo sapiens)", "max response, negative = inhibition / %": -2.92}
{"Compound": "CSCCC(C(=O)NC(C)(C)C)n1c(-c2ccccc2)nc2ccccc21 (stereo unspecified)", "System Name": "Serine/threonine-protein kinase PLK1 (Homo sapiens)", "max response, negative = inhibition / %": -11.3}
{"Compound": "CCOc1ccc(OCC)c(NC(=O)CCS(=O)(=O)c2ccc(C)cc2)c1", "System Name": "Serine/threonine-protein kinase PLK1 (Homo sapiens)", "max response, negative = inhibition / %": -5.07}
{"Compound": "O=C(Nc1ccccc1)c1cc2ccccc2[nH]1", "System Name": "Serine/threonine-protein kinase PLK1 (Homo sapiens)", "max response, negative = inhibition / %": 0}
{"Compound": "COc1ccc(Cl)cc1NC(=O)CCS(=O)(=O)c1cc2c(cc1C)NC(=O)CO2", "System Name": "Serine/threonine-protein kinase PLK1 (Homo sapiens)", "max response, negative = inhibition / %": -11.9}
{"Compound": "Cc1cc(O)ccc1-c1cc(C(=O)NCc2cc(C(F)(F)F)cc(C(F)(F)F)c2)[nH]n1", "System Name": "Serine/threonine-protein kinase PLK1 (Homo sapiens)", "max response, negative = inhibition / %": 3.49}
{"Compound": "Cc1ccc(S(=O)(=O)N2CCC(=O)N([C@H](COCc3ccccc3)C(C)C)CC2)cc1", "System Name": "Serine/threonine-protein kinase PLK1 (Homo sapiens)", "max response, negative = inhibition / %": -7.98}
{"Compound": "Cc1cc(NC(=O)CSc2nnc(-c3ccco3)n2N)no1", "System Name": "Serine/threonine-protein kinase PLK1 (Homo sapiens)", "max response, negative = inhibition / %": -3.98}
{"Compound": "COCCNc1nc(NCc2ccc(NC(C)=O)cc2)c2sccc2n1", "System Name": "Serine/threonine-protein kinase PLK1 (Homo sapiens)", "max response, negative = inhibition / %": -10.2}

* * *

Parameter max response, negative = inhibition: see the listing below.
Molecular target: Serine/threonine-protein kinase PLK1 (Homo sapiens)
Assay: qHTS for Inhibitors of PLK1-PDB (polo-like kinase 1 - polo-box domain): Primary Screen; note: series mostly up to about 57 µM; % is set by controls: 0 for no effect and ±100 for the full control effect; nearly all actives have a fitted effect of over 65% in size
Conditions: Plk1 PBD binding of FITC phosphopeptide, fluorescence polarization
Out of some 360,000 compounds screened, about 10,000 (2.8%) were called active. Inconclusive results (about 4%) are left out. This is one part of a sample in which actives are shown more often than they occur.
Recorded Metric: max response, negative = inhibition (%)

{"Compound": "CCc1c(C)sc(NC(=O)c2ccc(Br)o2)c1C(=O)OC", "Obs Value": -7.98}
{"Compound": "COc1ccc(C(=O)NCc2nnc(SCC(=O)NC3=NCCS3)n2C)cc1", "Obs Value": -0.0324}
{"Compound": "COc1ccc(N2CCN(C(=O)C3CCN(C(=O)c4ccccc4Cl)CC3)CC2)cc1", "Obs Value": 1.62}
{"Compound": "Cn1cnc(S(=O)(=O)N2C[C@@H](O)COC[C@@H]3O[C@H](CC(=O)NC4CCC4)CC[C@H]32)c1", "Obs Value": -0.717}
{"Compound": "CC(=O)c1ccc(Nc2nc(C(N)c3ccccc3Cl)cs2)cc1 (configuration not stated)", "Obs Value": -10.4}
{"Compound": "CCCNC(=O)C1(C)CCN(Cc2csc(-c3ccc(Cl)cc3)n2)C1 (configuration not stated)", "Obs Value": -6.86}
{"Compound": "CCCC/S(C)=N/S(=O)(=O)c1ccc(C)cc1 (configuration not stated)", "Obs Value": -5.69}
{"Compound": "C=CCn1c(SCCOc2ccc(OC)cc2)nnc1C(NC(=O)c1ccc(OC)cc1)C(C)C (configuration not stated)", "Obs Value": -13.7}
{"Compound": "COC(=O)C[C@@H]1C=C[C@@H](NC(=O)c2ccc3c(c2)OCO3)[C@@H](CO)O1", "Obs Value": -2.88}
{"Compound": "COc1ccc(C(O)C(O)(C(=O)OC(C)C)c2ccc(C)cc2)cc1 (configuration not stated)", "Obs Value": -13.4}
{"Compound": "CCn1c(Cc2ccccc2)nnc1SCc1nc2ccccc2c(=O)[nH]1", "Obs Value": -5.5}
{"Compound": "Cc1cccc(S(=O)(=O)N(C)C[C@H]2OCc3cnnn3CCCC(=O)N([C@@H](C)CO)C[C@H]2C)c1", "Obs Value": -16.9}
{"Compound": "CC[C@@H]1CC2=C(C(=O)OC(C)(C)O2)[C@@H](CC)O1", "Obs Value": 0.545}
{"Compound": "O=C(c1cccs1)N1CCN(Cc2ccc3c(c2)OCO3)CC1", "Obs Value": -0.579}
{"Compound": "O=C(Cc1ccc([N+](=O)[O-])cc1)NCCS(=O)(=O)N1CCN(c2ccccc2)CC1", "Obs Value": -7.66}
{"Compound": "CCn1c(COc2c(C)cccc2C)nnc1SCc1nc2ccccc2c(=O)[nH]1", "Obs Value": -11.4}
{"Compound": "CSc1ncnc2c1ncn2CCCNCC1CCCCC1", "Obs Value": 2.12}
{"Compound": "COc1ccc(S(=O)(=O)NC(=O)C2(C)CCN2C(=O)c2ccccc2CCc2ccccc2)cc1 (configuration not stated)", "Obs Value": -9.6}
{"Compound": "Cc1nc2ccccn2c(=O)c1NC(=O)c1ccc(Br)o1", "Obs Value": -0.655}
{"Compound": "COc1ccc(C(C)C)cc1-c1ccc2nncn2c1", "Obs Value": -3.26}
{"Compound": "CC(C)NC(=O)Nc1ccc2c(c1)C(=O)N([C@H](C)CO)C[C@H](C)[C@@H](CN(C)Cc1ccc(C(F)(F)F)cc1)OCCCC[C@@H](C)O2", "Obs Value": -16.7}
{"Compound": "CC(OC(=O)c1cccnc1Cl)C(=O)NC1CCCCC1 (configuration not stated)", "Obs Value": 1.67}
{"Compound": "Cc1cc(C)n(-c2nc(O)cc(=O)[nH]2)n1", "Obs Value": -2.57}
{"Compound": "CCOC(=O)[C@]12CCCC=C1N(CCC1=CCCCC1)C(=O)[C@H](CC(=O)N1CCN(C(=O)c3ccco3)CC1)C2", "Obs Value": -19.8}
{"Compound": "CC(C)c1ccc(NC(=O)Cn2ncc3ccccc32)cc1", "Obs Value": 5.15}
{"Compound": "C[C@@H]1CN([C@H](C)CO)S(=O)(=O)c2ccc(C#CC3CCCCC3)cc2O[C@H]1CN(C)C(=O)Cc1ccncc1", "Obs Value": 8.88}
{"Compound": "COc1ccc(CC(=O)NCc2nnc(SCC(=O)Nc3nccs3)n2C)cc1", "Obs Value": 3.83}
{"Compound": "Cc1ccccc1S(=O)(=O)NC(=O)C1(C)CCN1C(=O)Cc1ccc(Cl)cc1Cl (configuration not stated)", "Obs Value": -14.1}
{"Compound": "O=S1(=O)CC(N2CCN(c3ccccn3)CC2)CN1Cc1ccc(F)cc1 (configuration not stated)", "Obs Value": -5.38}
{"Compound": "CCCCN(C=O)c1c(CC)nc2c(OCc3ccccc3C(=O)OC)cccn12", "Obs Value": -4.2}
{"Compound": "Cc1ccc(C(=O)NCCc2nnc(SCC(=O)Nc3cccc(C(=O)O)c3)n2C)cc1", "Obs Value": 1.64}
{"Compound": "O=C(Nn1cnnc1)c1ccc([N+](=O)[O-])cc1", "Obs Value": -3.8}
{"Compound": "CC/S(CC1CC1(Cl)Cl)=N\\S(=O)(=O)c1ccc(C)cc1 (configuration not stated)", "Obs Value": -0.46}
{"Compound": "Cc1ccc(NC(=O)c2ccco2)cc1", "Obs Value": -4.07}
{"Compound": "CCOc1ccc(-c2cc(C(=O)N/N=C/c3ccc(O)cc3)c3ccccc3n2)cc1", "Obs Value": 1.12}
{"Compound": "CC(C)C1CCN(C(=O)C2CCC(=O)N(C3CCCCCC3)C2)CC1 (configuration not stated)", "Obs Value": 0.565}
{"Compound": "COCCCNC(NC(=O)c1ccc(OC)cc1)C(Cl)(Cl)Cl (configuration not stated)", "Obs Value": 5.66}
{"Compound": "CCc1nc2ccc(C(=O)N(C)CCN(C)C)cn2c1N(CC)CCOC", "Obs Value": -14.3}
{"Compound": "COc1ccc([C@H]2N[C@]3(CCCN(Cc4ccco4)C3=O)[C@H]3C(=O)N(C)C(=O)[C@@H]23)cc1", "Obs Value": -10.5}
{"Compound": "Fc1cccc(Cc2c(-c3ccc(Cl)cc3)nc3ccc(Cl)cn23)c1", "Obs Value": 9.81}
{"Compound": "CCc1nc2ccc(C(=O)NCCNC(C)=O)cn2c1N(CC)Cc1cccc(Br)c1", "Obs Value": -0.869}
{"Compound": "COc1ccc(-c2cc(C(=O)N/N=C/c3cccnc3)c3ccccc3n2)c(OC)c1", "Obs Value": 1.56}
